Reference for the values: paper PMC4201147

- ASSAY NOTES: Serum stability
- Type: in vitro ADME
- MEASUREMENT CONDITIONS: undiluted pooled mouse serum, 10 μL of 3 mg/mL peptide in 390 μL serum, 37°C, 0, 30, 120, 240 min, TCA precipitation, RP-HPLC at 214 nm, triplicate
Non-standard residues stand in square brackets, D forms with d. Residues, ends and D or L forms follow the SMILES beside them. Nva = CCC[C@H](N)C(=O)O
RECORDED ENDPOINT: half-life at 0.075 mg/mL

So what's the measured half-life at 0.075 mg/mL for this one? CCC[C@H](NC(=O)[C@@H]1CCCN1C(=O)[C@@H](NC(=O)[C@H](N)CC(N)=O)[C@@H](C)CC)C(=O)N[C@@H](CC(C)C)C(=O)N[C@@H](Cc1ccc(O)cc1)C(=O)N[C@H](CO)C(=O)N[C@@H](Cc1ccccc1)C(=O)N[C@@H](C)C(=O)N[C@H](CO)C(N)=O [ADP355] (H-[dN]IP[Nva]LY[dS]FA[dS]-NH2)
3 h
